# Tested on: HepG2
# assay_procedure: cell viability relative to DMSO; higher = less toxic
# cond: 72 h; 10 nM
endpoint_name: cell viability (%)

{"compound": "O=C1NC(O)CCN1[C@@H]1O[C@H](CO)[C@@H](O)[C@H]1O (stereo not given in full) [tetrahydrouridine]", "study_system": "HepG2", "recorded_number": 101}
{"compound": "NCCNS(=O)(=O)c1ccc(Cl)c2ccncc12", "study_system": "HepG2", "recorded_number": 94.9}
{"compound": "COCC[n+]1c2c(n(Cc3cnccn3)c1C)C(=O)c1ccccc1C2=O", "study_system": "HepG2", "recorded_number": 102}
{"compound": "Cc1[nH]c(/C=C2\\C(=O)Nc3ccc(S(=O)(=O)Cc4c(Cl)cccc4Cl)cc32)c(C)c1C(=O)N1CCC[C@@H]1CN1CCCC1", "study_system": "HepG2", "recorded_number": 96.9}
{"compound": "Nc1ccn([C@@H]2O[C@H](CO)[C@@H](O)C2(F)F)c(=O)n1", "study_system": "HepG2", "recorded_number": 71.2}

---

# Test system: HepG2
# assay_procedure: drug sensitivity score (DSS) for viability; higher = more toxic; extreme values may be limits of the assay
# cond: 72 h

{"molecule": "Nc1ccccc1NC(=O)c1ccc(CNc2nccc(-c3cccnc3)n2)cc1", "drug sensitivity score": 12.5}
{"molecule": "N[C@@H](Cc1ccc(O)cc1)C(=O)O [plovamer-acetate]", "drug sensitivity score": 0}
{"molecule": "CCCC1(CCC)CCC2(CCN(CCCN(CC)CC)C2)CC1", "drug sensitivity score": 8.3}
{"molecule": "CCCC(=O)O [sodium-butyrate]", "drug sensitivity score": 0}
{"molecule": "C[C@@H]1C[C@H]2[C@@H]3C[C@H](F)C4=CC(=O)C=C[C@]4(C)[C@@]3(F)[C@@H](O)C[C@]2(C)[C@@]1(O)C(=O)CO", "drug sensitivity score": 0}
{"molecule": "CCOc1ccccc1C(=O)O", "drug sensitivity score": 0}
{"molecule": "CCN1CCC[C@H]1CNC(=O)c1c(O)c(Cl)cc(Cl)c1OC [raclopride]", "drug sensitivity score": 0}
{"molecule": "Cc1noc(-c2ccc(-c3ccc(CC(=O)O)cc3)cc2)c1NC(=O)O[C@H](C)c1ccccc1", "drug sensitivity score": 0}
{"molecule": "CO[C@H]1/C=C/O[C@@]2(C)Oc3c(C)c(O)c4c(O)c(c(/C=N/N=C/N5CCCCC5)c(O)c4c3C2=O)NC(=O)/C(C)=C\\C=C\\[C@H](C)[C@H](O)[C@@H](C)[C@@H](O)[C@@H](C)[C@H](OC(C)=O)[C@@H]1C", "drug sensitivity score": 0}

---

# Tested on: Caco-2
# assay_procedure: cell viability relative to DMSO; higher = less toxic
# cond: 72 h; 1000 nM

{"compound": "O=C(Nc1ccccc1)[C@]12C[C@H]1/C(=N\\O)c1ccccc1O2 [PHCCC]", "cell viability": "107%"}
{"compound": "CC(=O)N1CCC(NC(=O)c2ccc(F)cc2)CC1 [FK-962]", "cell viability": "108%"}
{"compound": "C[C@H](Nc1ncnc2nc[nH]c12)c1cc2cccc(Cl)c2c(=O)n1-c1ccccc1 [duvelisib]", "cell viability": "84.1%"}
{"compound": "Cc1cc(Oc2ccc3nc(COc4ccc(CC5SC(=O)NC5=O)cc4)n(C)c3c2)cc(C)c1N (configuration not stated) [efatutazone]", "cell viability": "97.3%"}
{"compound": "CC(C)=CCC[C@](C)(O)[C@H]1CC[C@]2(C)[C@@H]1[C@H](O)C[C@@H]1[C@@]3(C)CC[C@H](O)C(C)(C)[C@@H]3CC[C@]12C [S-111]", "cell viability": "104%"}
{"compound": "CC(C)C[C@@H]1NC(=O)[C@@H](C(C)C)NC(=O)[C@@H]2CCCN2C(=O)[C@@H](CC(=O)O)NC(=O)[C@@H](Cc2c[nH]c3ccccc23)NC1=O [BQ-123]", "cell viability": "91.4%"}
{"compound": "CC(C)CCNC(=O)[C@H](CC(C)C)NC(=O)[C@H]1O[C@@H]1C(=O)O [loxistatin-acid]", "cell viability": "99%"}
